Below: a set of entries, each annotated with reported Normalized ΔF/F of κLight1.3.
- study.system: κLight1.3 (Homo sapiens, UniProt P41145, INS261[…]/L259S/S262L/V164K)
- Construct: TlcnC (telencephalin) tag (C); PRC tag (C); ER2 (ER export motif FCYENEV) tag (C); expressed in transfected cells; dissociated hippocampal neurons (AAV9-hSyn); mouse brain (AAV9-hSyn)
- Sequence (P41145 with tags, fused parts or gaps V164K/L259S/INS261[withheld]/S262L): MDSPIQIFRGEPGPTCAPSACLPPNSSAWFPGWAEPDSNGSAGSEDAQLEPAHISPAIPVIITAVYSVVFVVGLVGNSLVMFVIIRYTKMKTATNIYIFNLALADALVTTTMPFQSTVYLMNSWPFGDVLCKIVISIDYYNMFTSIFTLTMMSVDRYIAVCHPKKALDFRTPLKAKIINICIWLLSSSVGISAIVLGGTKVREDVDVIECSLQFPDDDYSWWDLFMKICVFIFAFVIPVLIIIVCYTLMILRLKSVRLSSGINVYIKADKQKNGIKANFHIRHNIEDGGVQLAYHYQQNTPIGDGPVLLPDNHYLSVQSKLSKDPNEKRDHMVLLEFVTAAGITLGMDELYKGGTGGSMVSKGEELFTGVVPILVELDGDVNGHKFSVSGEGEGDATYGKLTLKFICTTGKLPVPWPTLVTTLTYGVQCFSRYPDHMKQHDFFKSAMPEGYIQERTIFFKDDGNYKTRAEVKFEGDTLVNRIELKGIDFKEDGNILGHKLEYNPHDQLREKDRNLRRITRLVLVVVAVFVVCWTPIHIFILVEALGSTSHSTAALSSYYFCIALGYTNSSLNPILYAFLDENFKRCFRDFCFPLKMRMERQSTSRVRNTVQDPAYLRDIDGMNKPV
- Assay type: cell-based
// print number alone

Known results for compounds:
C[C@@H](NC(=O)[C@@H](N)Cc1ccc(O)cc1)C(=O)NCC(=O)N(C)[C@@H](Cc1ccccc1)C(=O)NCCO : 0.17
CSCC[C@H](NC(=O)[C@H](Cc1ccccc1)NC(=O)CNC(=O)CNC(=O)[C@@H](N)Cc1ccc(O)cc1)C(=O)O : 0.18
CC(C)C[C@H](NC(=O)[C@H](Cc1ccccc1)NC(=O)CNC(=O)CNC(=O)[C@@H](N)Cc1ccc(O)cc1)C(=O)O : 0.24

Ask | Quick one: Normalized ΔF/F of κLight1.3 of COc1ccc2c3c1O[C@H]1C(=O)CC[C@@]4(O)[C@@H](C2)N(C)CC[C@]314 ?
Reply | 0.16
